Tested on: 496974-208-R-J2-PDC complex spheroids, growth % test/control;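 also: spheroids exposed to the drugs for 7 days before readout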
ASSAY_INFO: Anticancer human tumor 496974-208-R-J2-PDC patient-derived pancreatic carcinoma cell line growth inhibition [CLK]
CONDITIONS: curve of first compound; second compound 0.0316 µM
Reported IC50 by item:
Please respond with the number in nM and leave the unit unwritten.

Exercise: Consider the compound COc1c(OCCCN2CCOCC2)ccc2c3n(c(=NC(=O)c4cnc(N)nc4)nc12)CCN3 + CNC(=O)c1ccc(Nc2nc(OC3CCCC3)c3c(-c4ccc5nc(C)oc5c4)c[nH]c3n2)c(OC)c1 tested on 496974-208-R-J2-PDC complex spheroids, growth % test/control; state its IC50.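 Also: spheroids exposed to the drugs for 7 days before readout.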
Key: 17.4

Exercise: Look up 496974-208-R-J2-PDC complex spheroids, growth % test/control data: IC50 of COc1cccc2c1C(=O)c1c(O)c3c(c(O)c1C2=O)CC(O)(C(=O)CO)CC3OC1CC(N)C(O)C(C)O1 (centres undefined) + CNC(=O)c1ccc(Nc2nc(OC3CCCC3)c3c(-c4ccc5nc(C)oc5c4)c[nH]c3n2)c(OC)c1 , then report it.
Key: 185

Let's switch to this compound now.
Exercise: // output IC50; input COc1c(OCCCN2CCOCC2)ccc2c3n(c(=NC(=O)c4cnc(N)nc4)nc12)CCN3 + CN1CCN(c2cc(C(=O)Nc3cc4cc(-c5cnn(C)c5)ccc4cn3)ccn2)CC1 ; system 496974-208-R-J2-PDC complex spheroids, growth % test/control;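 also: spheroids exposed to the drugs for 7 days before readout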
Key: 15.8
